TEST_SYSTEM: human GnRH receptor (Homo sapiens)
Construct: host or cells: CHO cells stably expressing human GnRH receptor (line established by Prof. Thomas Gudermann)
Sequence (P30968 whole entry): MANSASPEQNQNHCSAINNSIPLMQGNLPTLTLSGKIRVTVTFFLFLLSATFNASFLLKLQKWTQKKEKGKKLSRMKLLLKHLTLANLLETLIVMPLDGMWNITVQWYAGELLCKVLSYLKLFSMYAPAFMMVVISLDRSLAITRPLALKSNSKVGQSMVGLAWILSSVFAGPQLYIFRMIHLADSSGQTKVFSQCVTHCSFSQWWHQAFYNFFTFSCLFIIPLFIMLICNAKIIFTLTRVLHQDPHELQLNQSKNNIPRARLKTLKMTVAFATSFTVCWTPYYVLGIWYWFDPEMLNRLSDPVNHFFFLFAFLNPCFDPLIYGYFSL
TEST_NAME: IP-One HTRF assay with buserelin stimulation
Assay type: cell-based
CONDITION_SET: CHO cells stably expressing human GnRH receptor; buserelin at EC80; read-out: Potency in IP-One HTRF assay with buserelin (at EC80) stimulation, given as IC50
pIC50: −log10 of the molar value.
Parameter pIC50: see the listing below.

{"COMPOUND": "O=C(NCc1ncc(C(F)(F)F)cc1Cl)c1ccc2c(c1)C1(CCS(=O)(=O)CC1)[C@H](C1CC1)N2S(=O)(=O)c1ccc(F)cc1 [Example 3.1]", "TEST_SYSTEM": "human GnRH receptor (Homo sapiens)", "pIC50": 7.68}
{"COMPOUND": "N#Cc1cccc(S(=O)(=O)N2c3ccc(C(=O)NCc4ncc(C(F)(F)F)cc4F)cc3C3(CCS(=O)(=O)CC3)C2C2CC2)c1 (racemic) [Example 9]", "TEST_SYSTEM": "human GnRH receptor (Homo sapiens)", "pIC50": 6.51}
{"COMPOUND": "N#Cc1ccc(S(=O)(=O)N2c3ccc(C(=O)NCc4ncc(C(F)(F)F)cc4Cl)cc3C3(CCS(=O)(=O)CC3)[C@@H]2C2CC2)cc1 (single isomer, unassigned) [Example 8.1]", "TEST_SYSTEM": "human GnRH receptor (Homo sapiens)", "pIC50": 8.00}
{"COMPOUND": "O=C(NCc1ncc(C(F)(F)F)cc1F)c1ccc2c(c1)C1(CCS(=O)(=O)CC1)[C@@H](C1CC1)N2S(=O)(=O)c1ccc(F)cc1 (single isomer, unassigned) [Example 1.2]", "TEST_SYSTEM": "human GnRH receptor (Homo sapiens)", "pIC50": 5.16}
{"COMPOUND": "N#Cc1cccc(S(=O)(=O)N2c3ccc(C(=O)NCc4ncc(C(F)(F)F)cc4Cl)cc3C3(CCS(=O)(=O)CC3)[C@@H]2C2CC2)c1 (single isomer, unassigned) [Example 10.1]", "TEST_SYSTEM": "human GnRH receptor (Homo sapiens)", "pIC50": 7.85}
